# STUDY_TARGET: full-length beta-Catenin (Uniprot ID P35222) (Homo sapiens, UniProt P35222)
# Construct: 10 nM full-length beta-Catenin (Uniprot ID P35222)
# Sequence (P35222 whole entry): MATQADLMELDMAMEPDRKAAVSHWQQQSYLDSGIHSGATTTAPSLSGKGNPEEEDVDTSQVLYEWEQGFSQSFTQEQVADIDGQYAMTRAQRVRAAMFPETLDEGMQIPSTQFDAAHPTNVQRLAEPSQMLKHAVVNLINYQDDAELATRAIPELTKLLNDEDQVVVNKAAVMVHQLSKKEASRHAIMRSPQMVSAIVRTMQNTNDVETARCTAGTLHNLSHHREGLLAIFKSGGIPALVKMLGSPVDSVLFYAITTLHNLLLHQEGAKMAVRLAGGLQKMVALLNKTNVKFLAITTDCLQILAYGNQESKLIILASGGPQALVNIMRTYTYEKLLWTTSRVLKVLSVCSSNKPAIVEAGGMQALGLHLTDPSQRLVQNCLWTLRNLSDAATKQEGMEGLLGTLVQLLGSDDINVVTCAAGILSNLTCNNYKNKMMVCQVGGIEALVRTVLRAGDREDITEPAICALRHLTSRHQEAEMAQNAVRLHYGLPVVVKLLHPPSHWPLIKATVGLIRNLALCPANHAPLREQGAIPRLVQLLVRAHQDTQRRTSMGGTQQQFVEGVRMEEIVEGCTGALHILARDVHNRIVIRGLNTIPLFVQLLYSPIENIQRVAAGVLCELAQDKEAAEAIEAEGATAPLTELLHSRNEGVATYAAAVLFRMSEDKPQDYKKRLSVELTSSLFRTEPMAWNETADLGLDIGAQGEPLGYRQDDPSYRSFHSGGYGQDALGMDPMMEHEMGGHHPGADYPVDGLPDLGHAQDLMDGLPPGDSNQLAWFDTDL
# PROCEDURE_SUMMARY: Fluorescence polarization IC50 (beta-catenin / 5FAM-TCF4 10-53 competition)
# Assay type: binding
# CONDITION_PARAMETERS: read-out: beta-Catenin FP IC50
Record form. Attribute: IC50. Fill in for each entry.
Give the value, in units of nM, as a plain number.

Exam item: For full-length beta-Catenin (Uniprot ID P35222) (Homo sapiens, UniProt P35222), give IC50 of the listed molecule: CC(=O)N1CCC[C@]12CC=CCCCC1(CCCC=CCCCOC(=O)N3CC[C@@](C(=O)N[C@@H](Cc4ccsc4)C(=O)N[C@@H](Cc4csc5ccccc45)C(=O)N[C@@H](CO)C(N)=O)(C3)NC(=O)[C@H](Cc3ccccc3)NC(=O)[C@H](Cc3ccccc3)NC(=O)[C@H](C)NC(=O)[C@H](C)NC(=O)[C@H](CN(CC(=O)O)CC(F)(F)F)NC(=O)[C@H](CC(=O)O)NC1=O)NC(=O)[C@H](CC(C)(C)C)NC(=O)[C@H](CC(=O)O)NC2=O (stereo partly drawn) [I-963]
Marked response: 402

Exam item: Print full-length beta-Catenin (Uniprot ID P35222) (Homo sapiens, UniProt P35222) IC50 for CC(=O)N1CCC[C@]12CC=CCCCC1(CCCC=CCCCOC(=O)N3CC[C@@](C(=O)N[C@@H](Cc4ccccc4)C(=O)N[C@@H](Cc4csc5ccccc45)C(=O)N[C@@H](CCC(N)=O)C(N)=O)(C3)NC(=O)[C@H](CO)NC(=O)[C@H](Cc3ccc(C(F)(F)F)cc3)NC(=O)[C@H](C)NC(=O)[C@H](C)NC(=O)[C@H](CC(=O)O)NC(=O)[C@H](CC(=O)O)NC1=O)NC(=O)[C@H](CC1CCCCC1)NC(=O)[C@H](CC(=O)O)NC2=O (stereo partly drawn) [I-1126] .
Marked response: 32

Exam item: Please look at CC(=O)N1CCC[C@]12CC=CCCCC1(CCCC=CCCCOC(=O)N3CC[C@@](C(=O)N[C@@H](Cc4ccsc4)C(=O)N[C@@H](Cc4csc5ccccc45)C(=O)N[C@@H](CCC(N)=O)C(N)=O)(C3)NC(=O)[C@H](CC(C)C)NC(=O)[C@H](Cc3ccccc3)NC(=O)[C@H](C)NC(=O)[C@H](C)NC(=O)[C@H](CC(=O)O)NC(=O)[C@H](CC(=O)O)NC1=O)NC(=O)[C@H](CC(C)(C)C)NC(=O)[C@H](CC(=O)O)NC2=O (stereo partly drawn) [I-801] and tell me its recorded IC50 on full-length beta-Catenin (Uniprot ID P35222) (Homo sapiens, UniProt P35222).
Marked response: 7
